protocol: chemical genetic growth profiling, strain panel (AID 1159580);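 further: tested at 20 µM; growth read once vehicle control cultures reached saturation at 30 °C; 1 = growth at the plate median or of vehicle wells; lower values mean less growth of the strain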
condition: S. cerevisiae deletion strains, growth OD, locus YBR009C, strain hhf1, hits give low values
Among all 5,500 compounds or so, about 2,000 (36%) were called active. Another 18% or so got no clear call; they are omitted. Some of the results follow.
experimental.endpoint: normalized growth

INSERT INTO assay_data (compound, observed_result) VALUES
  ('CCC(=O)NCC[C@@H]1CCc2ccc3c(c21)CCO3', 0.987),
  ('CC(=O)OCC(=O)[C@@]1(O)CCC2C3C[C@H](C)C4=CC(=O)C=CC4(C)C3[C@@H](O)CC21C (stereo partly drawn)', 0.985),
  ('C[C@H]1O[C@H](O[C@H]2[C@H](O)[C@@H](O)[C@@H](O[C@H]3[C@H](O)[C@@H](O)C(O)O[C@@H]3CO)O[C@@H]2CO)[C@H](O)[C@@H](O)[C@@H]1N[C@H]1C=C(CO)[C@@H](O)[C@H](O)[C@H]1O (stereo partly drawn)', 1.01),
  ('CC(C)C[C@@H](NC(=O)OCC1c2ccccc2-c2ccccc21)C(=O)O', 1.01),
  ('CCC(=O)O[C@]1(C(=O)CCl)[C@@H](C)CC2C3CCC4=CC(=O)C=C[C@]4(C)[C@@]3(F)[C@@H](O)C[C@@]21C (stereo partly drawn)', 1.01),
  ('CCC(=O)OCC(=O)C1(OC(=O)CC)C(C)CC2C3C(Cl)CC4=CC(=O)C=CC4(C)C3C(O)CC21C (stereo not drawn)', 1.09),
  ('NCCCN', 0.988),
  ('C/C=C(\C)C(=O)O[C@@H]1c2c(ccc3ccc(=O)oc23)OC(C)(C)[C@@H]1OC(C)=O', 1.03),
  ('COP(N)(=O)SC (stereo not drawn)', 1.02),
  ('N#Cc1c(Cl)cccc1Cl', 0.959),
  ('CC1(C)Oc2ccc3ccc(=O)oc3c2CC1O (stereo not drawn)', 0.94),
  ('Cc1ccc(-c2nc3ccc(C)cn3c2CC(=O)N(C)C)cc1', 1.02),
  ('CC(=O)O[C@@H]1c2c(ccc3ccc(=O)oc23)OC(C)(C)[C@@H]1OC(=O)CC(C)C', 1.05),
  ('COc1ccc(-c2cc(=O)c3c(O)cc(O)c(-c4cc(-c5cc(=O)c6c(O)cc(O)cc6o5)ccc4OC)c3o2)cc1', 1.01),
  ('C/C=C/CC(C)C(O)C1C(=O)NC(CC)C(=O)N(C)CC(=O)N(C)C(CC(C)C)C(=O)NC(C(C)C)C(=O)N(C)C(CC(C)C)C(=O)NC(C)C(=O)NC(C)C(=O)N(C)C(CC(C)C)C(=O)N(C)C(CC(C)C)C(=O)N(C)C(C(C)C)C(=O)N1C (stereo not drawn)', 1.01),
  ('Nc1nc(/C(=C/CC(=O)O)C(=O)N[C@@H]2C(=O)N3C(C(=O)O)=CCS[C@H]23)cs1', 1.02),
  ('CC1=CC(=O)C(C(C)C)=CC1=O', 0.488),
  ('Cc1cc(N)c2ccccc2[n+]1CCCCCCCCCC[n+]1c(C)cc(N)c2ccccc21', 0.0696);

###

protocol: chemical genetic growth profiling, strain panel (AID 1159580);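 further: tested at 20 µM; growth read once vehicle control cultures reached saturation at 30 °C; 1 = growth at the plate median or of vehicle wells; lower values mean less growth of the strain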
condition: S. cerevisiae deletion strains, growth OD, locus YPL240C, strain hsp82, hits give low values
The campaign covered roughly 5,500 compounds. About 2,000 (36%) were called active. Another 18% or so got no clear call; they are omitted. The list shows a part of the results.
Attribute: normalized growth
experimental.endpoint: normalized growth

INSERT INTO results (compound, observed_result) VALUES
  ('CC1(C)S[C@@H]2[C@H](NC(=O)C(C(=O)O)c3ccccc3)C(=O)N2[C@H]1C(=O)O (stereo partly drawn)', 0.971),
  ('Cc1ncc(CO)c(CO)c1O', 1.04),
  ('CC(=O)Oc1ccccc1C(=O)Oc1ccccc1C(=O)O', 1.01),
  ('CC(C)(C)NCC(O)COc1cccc2c1C[C@H](O)[C@H](O)C2 (stereo partly drawn)', 0.997),
  ('COc1cc2c(cc1OC)-c1c(oc3cc(O)cc(O)c3c1=O)CO2', 1.02),
  ('COc1cc(O)c2c(=O)cc(-c3ccc(OC)c(-c4c(O)cc(O)c5c(=O)cc(-c6ccc(O)cc6)oc45)c3)oc2c1', 1.01),
  ('COc1ccc(-c2cc(=O)c3c(O)cc(O)c(-c4cc(-c5cc(=O)c6c(O)cc(O)cc6o5)ccc4OC)c3o2)cc1', 1),
  ('C[C@H]1O[C@H](O[C@H]2[C@H](O)[C@@H](O)[C@@H](O[C@H]3[C@H](O)[C@@H](O)C(O)O[C@@H]3CO)O[C@@H]2CO)[C@H](O)[C@@H](O)[C@@H]1N[C@H]1C=C(CO)[C@@H](O)[C@H](O)[C@H]1O (stereo partly drawn)', 0.988);
